TESTED TARGET: Caspase-3 (Homo sapiens);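 also: Dose-response selectivity test against caspase-3 for candidate inhibitors of sentrin-specific proteases (SENPs)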
Sequence (P42574 29-175 limits assumed): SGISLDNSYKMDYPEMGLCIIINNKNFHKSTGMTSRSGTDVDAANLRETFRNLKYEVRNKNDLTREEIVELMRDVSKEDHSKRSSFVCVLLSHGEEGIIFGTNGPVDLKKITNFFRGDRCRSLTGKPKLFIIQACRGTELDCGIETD
Sequence (P42574 176-277 limits assumed): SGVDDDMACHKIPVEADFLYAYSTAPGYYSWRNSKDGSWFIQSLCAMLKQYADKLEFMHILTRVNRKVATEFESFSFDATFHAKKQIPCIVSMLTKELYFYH
Type: functional
Active and inactive are the calls of the source.
PROPERTY NAME: IC50

| STRUCTURE AS SMILES | RECORDED RESULT |
| --- | --- |
| Cc1ccc2c(c1N)C(=O)c1ccccc1C2=O | 11.8 µM (active) |
| CCOC(=O)c1c(C)[nH]c(N=Nc2cccc(C)c2)c1C | 40.3 µM (active) |
| Nc1ccccc1C#Cc1ccc([N+](=O)[O-])cc1 | 23.2 µM (active) |
| CCCc1ccc(OC(=O)c2ccc(O)cc2Cl)cc1 | 38.4 µM (active) |

Note: attention shifts to another entry.
So for "Cc1ccc(-n2nnc(-c3cccnc3Cl)n2)cc1" , the logged IC50 turned out to be 9.03 µM (active)
